Molecular target: Muscarinic acetylcholine receptor
Assay: Dissociation constant towards Muscarinic acetylcholine receptor in guinea pig ileum
Type: tissue-based, Cavia porcellus
parameter: Kd (µM)

Worked cases, answers included:
Entry CC(=O)N1CCCC1C#CCN(C)C (racemic) : reported Kd = ?
125

State the recorded Kd for this entry: CC(=O)N1CCCC[C@H]1C#CCN1CCCC1
6.32

Given CC(=O)N1CCCCC1C#CCN1CCCC1 (racemic) , state its recorded Kd.
0.097

a. CC(=O)N1CCC[C@H]1C#CCN1CCCC1
b. CC(=O)N1CCCC[C@@H]1C#CCN1CCCC1
c. CC(=O)N1CCC[C@@H]1C#CCN1CCCC1
d. CC(=O)N1CCCCCC1C#CCN(C)C (racemic)
Order the items by recorded Kd; the first position goes to the largest value. Provide your answer as the labels ordered per the instruction.
a, d, c, b
(a: 16.01 µM, d: 7 µM, c: 1.16 µM, b: 0.08 µM)

###

Experiment: Inhibition of specific binding of [3H]NMS to Muscarinic acetylcholine receptor in rat cerebral cortex by using competitive binding assay
Type: tissue-based
parameter: Ki (nM)

Given the compound CC(=O)N1CCCC1C#CCN1CCCC1 (racemic) , what is its reported Ki?
670

Name the recorded Ki for CC(=O)N1CCCCC[C@H]1C#CCN1CCCC1 .
2070

# lookup: Ki of CC(=O)N1CCCCCC1C#CCN(C)C (racemic)
2900

1. CC(=O)N1CCCCCC1C#CCN1CCCC1 (racemic)
2. CC(=O)N1CCC[C@@H]1C#CCN1CCCC1
3. CC(=O)N1CCCC[C@H]1C#CCN1CCCC1
Order the items by recorded Ki; the first position goes to the largest value. Returns: the labels arranged in the requested order.
3, 2, 1
(3: 1480 nM, 2: 410 nM, 1: 82 nM)

###

Species on record: Cavia porcellus
Test: Slope of schild plot in guinea pig ileum was determined
Format: functional
parameter: Slope of Schild plot
Quick one: just the number, no unit, thanks!

Which Slope of Schild plot is listed for CC(=O)N1CCCC[C@H]1C#CCN1CCCC1 ?
0.99

Next:
Please give the measured Slope of Schild plot for this molecule: CC(=O)N1CCCCCC1C#CCN(C)C (racemic)
1.1

Name the reported Slope of Schild plot value associated with the molecule CC(=O)N1CCCCC[C@@H]1C#CCN1CCCC1
1.27

I would be grateful if you could share the reported Slope of Schild plot for CC(=O)N1CCCC1C#CCN1CCCC1 (racemic) .
0.9

Find the recorded Slope of Schild plot belonging to CC(=O)N1CCCCC1C#CCN(C)C (racemic) and report it.
0.9

State the recorded Slope of Schild plot for this entry: CC(=O)N1CCC[C@H]1C#CCN1CCCC1
0.8

###

Listing of entries alongside the reported Slope of Schild plot.
Organism: Cavia porcellus
Assay: Slope of schild plot in guinea pig ileum was determined
Assay type: functional
The response must contain the number and no unit.

Solved cases (5 shown):
Recorded Slope of Schild plot of CC(=O)N1CCCCCC1C#CC[N+](C)(C)C (racemic) , please.
1.03

// query Slope of Schild plot value for entry CC(=O)N1CCC[C@@H]1C#CCN1CCCC1
1.05

Which Slope of Schild plot reading was recorded for the compound CC(=O)N1CCCCC1C#CCN1CCCC1 (racemic) ?
0.88

Given the entry CC(=O)N1CCCCCC1C#CCN1CCCC1 (racemic) , report its measured Slope of Schild plot.
1.17

Need Slope of Schild plot, item CC(=O)N1CCCCC[C@H]1C#CCN1CCCC1
1.17

# next compound below
Data request, read-out Slope of Schild plot, for CC(=O)N1CCCC[C@@H]1C#CCN1CCCC1
0.86

###

Biological target: Muscarinic acetylcholine receptor
Assay: Dissociation constant towards Muscarinic acetylcholine receptor in guinea pig ileum
Format: tissue-based, Cavia porcellus
parameter: Kd (nM)

Worked cases, answers included:
Need Kd, item CC(=O)N(C)[C@@H](C)C#CCN1CCCC1
3230

I have this molecule here, CC(=O)N1CCCCCC1C#CCN1CCCC1 (racemic) , and I need its recorded Kd.
110

Can you share its Kd? I mean this molecule: CC(=O)N1CCCC1C#CCN1CCCC1 (racemic)
1400

Which Kd reading was recorded for the molecule CC(=O)N(C)[C@H](C)C#CCN1CCCC1 ?
200

Fill blank: measured Kd of the molecule CC(=O)N1CCCCC1C#CCN(C)C (racemic) is ____.
8300

A. CC(=O)N1CCCCC[C@@H]1C#CCN1CCCC1
B. CC(=O)N1CCCCCC1C#CC[N+](C)(C)C (racemic)
C. CC(=O)N1CCCCC[C@H]1C#CCN1CCCC1
Hi! Can you put these in order of Kd, lowest number first? Arrange the labels as the request states and list them.
A, B, C
(A: 161 nM, B: 3550 nM, C: 7850 nM)

###

Assay: Inhibition of specific binding of [3H]NMS to Muscarinic acetylcholine receptor in rat cerebral cortex by using competitive binding assay
Type: tissue-based
pKi: −log10 of the molar value.
parameter: pKi

Which pKi is listed for CC(=O)N1CCCC[C@@H]1C#CCN1CCCC1 ?
7.80

I am curious: what pKi value has been reported for CC(=O)N1CCCC1C#CC[N+](C)(C)C (racemic) ?
5.21

Report pKi for CC(=O)N1CCCCC1C#CCN1CCCC1 (racemic) please.
7.36

Fill in the blank: the reported pKi of CC(=O)N1CCCC1C#CCN(C)C (racemic) is ____.
4.60

P. CC(=O)N1CCCCC1C#CCN(C)C (racemic)
Q. CC(=O)N1CCCCC1C#CC[N+](C)(C)C (racemic)
R. CC(=O)N1CCC[C@H]1C#CCN1CCCC1
S. CC(=O)N1CCCCC[C@@H]1C#CCN1CCCC1
# rank_down: sort by pKi, max first // rank by listing labels in the order requested
S, Q, P, R

Data origin, for the record: ChEMBL document CHEMBL1125028
